System: Bacillus subtilis
Test: Antibacterial activity against Bacillus subtilis
Format: functional
Give inhibition zone (IZ) for every item shown.

Can you share its inhibition zone (IZ)? I mean this molecule: O=[N+]([O-])c1cnc2c(c1)Sc1cccc(F)c1N2 8 - 12 mm

Field request: inhibition zone (IZ) | item: O=[N+]([O-])c1cnc2c(c1)Sc1cc(Cl)ccc1N2 8 - 12 mm

State the recorded inhibition zone (IZ) for this entry: O=[N+]([O-])c1cnc2c(c1)Sc1cc(F)ccc1N2 12 mm

Item O=[N+]([O-])c1cnc2c(c1)Sc1cc(Br)ccc1N2 has what recorded inhibition zone (IZ)? 8 - 12 mm

Query (molecule): O=[N+]([O-])c1cnc2c(c1)Sc1cccc(Br)c1N2 ; field requested: inhibition zone (IZ) 8 - 12 mm

Name the recorded inhibition zone (IZ) for O=[N+]([O-])c1cnc2c(c1)Sc1cccc(Cl)c1N2 . 12 mm
